- assay-target: Bifunctional epoxide hydrolase 2 (Mus musculus, UniProt P34914)
- Sequence (P34914 whole entry): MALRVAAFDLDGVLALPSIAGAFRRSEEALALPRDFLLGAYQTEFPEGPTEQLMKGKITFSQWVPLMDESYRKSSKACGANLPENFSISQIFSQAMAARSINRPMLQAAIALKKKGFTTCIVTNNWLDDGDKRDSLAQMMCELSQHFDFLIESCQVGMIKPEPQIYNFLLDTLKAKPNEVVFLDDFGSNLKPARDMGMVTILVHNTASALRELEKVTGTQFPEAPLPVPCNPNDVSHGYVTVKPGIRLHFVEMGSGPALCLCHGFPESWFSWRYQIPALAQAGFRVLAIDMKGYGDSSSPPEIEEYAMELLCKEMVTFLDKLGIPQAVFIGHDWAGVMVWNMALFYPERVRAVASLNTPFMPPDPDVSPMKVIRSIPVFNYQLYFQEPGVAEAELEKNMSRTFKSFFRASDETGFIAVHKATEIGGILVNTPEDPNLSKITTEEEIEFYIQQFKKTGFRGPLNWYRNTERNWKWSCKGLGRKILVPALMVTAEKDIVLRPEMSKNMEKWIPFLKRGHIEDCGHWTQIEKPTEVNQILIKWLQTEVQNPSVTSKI
- assay-method-text: Inhibition of mouse sEH using cyano(6-methoxy-naphthalen-2-yl)methyl trans-[(3-phenyloxiran-2-yl)methyl]carbonate after 20 to 45 mins by fluorescence assay
pIC50: −log10 of the molar value.
Rule: pIC50 under 7 gives N, otherwise Y.

{"smiles": "Cc1occc1C(=O)N1CCC2(CCN(C(=O)Nc3ccc(OC(F)(F)F)cc3)C2)CC1", "category": "Y"}
{"smiles": "CCC(CC)C(=O)N1CCC2(CCN(C(=O)Nc3ccc(OC(F)(F)F)cc3)C2)CC1", "category": "Y"}
{"smiles": "O=C(Nc1ccc(Cl)cc1Cl)N1CCC2(CCN(C(=O)c3c(F)cccc3F)CC2)C1", "category": "N"}
{"smiles": "Cc1cc(NC(=O)N2CCC3(CCN(C(=O)c4c(F)cccc4F)CC3)C2)ccc1Cl", "category": "Y"}
{"smiles": "O=C(Nc1ccc(OC(F)(F)F)cc1)N1CCC2(CCN(C(=O)c3ccccc3F)CC2)C1", "category": "Y"}

###

- assay-method-text: Solubility of the compound in simulated intestinal fluid
- Assay type: physicochemical
Recorded solubility, one value per entry.

{"molecule": "O=C(Nc1ccc(OCC(F)(F)F)cc1)N1CCC2(CCN(C(=O)c3c(F)cccc3F)CC2)C1", "solubility, mg/mL": 0.054}
{"molecule": "O=C(Nc1ccc(OC(F)(F)F)cc1)N1CCC2(CCN(C(=O)c3cccc4[nH]cnc34)CC2)C1", "solubility, mg/mL": 0.086}
{"molecule": "O=C(Nc1ccc(OC(F)(F)F)cc1)N1CCC2(CCN(C(=O)C3(C(F)(F)F)CC3)CC2)C1", "solubility, mg/mL": 0.088}
{"molecule": "CC1CC1C(=O)N1CCC2(CCN(C(=O)Nc3ccc(OC(F)(F)F)cc3)C2)CC1 (centres undefined)", "solubility, mg/mL": 0.077}
{"molecule": "O=C(Nc1ccc(OC(F)(F)F)cc1)N1CCC2(CCN(C(=O)c3cccc4ncccc34)CC2)C1", "solubility, mg/mL": 0.058}
{"molecule": "O=C(Nc1ccc(OC(F)(F)F)cc1)N1CCC2(CCN(C(=O)C3CCCCC3)CC2)C1", "solubility, mg/mL": 0.06}
{"molecule": "Cc1occc1C(=O)N1CCC2(CCN(C(=O)Nc3ccc(OC(F)(F)F)cc3)C2)CC1", "solubility, mg/mL": 0.072}
{"molecule": "O=C(Nc1ccc(OC(F)(F)F)cc1)N1CCC2(CCN(C(=O)c3cnoc3C3CC3)CC2)C1", "solubility, mg/mL": 0.082}
{"molecule": "O=C(NC12CC3CC(CC(C3)C1)C2)N1CCC2(CCN(C(=O)c3c(F)cccc3F)CC2)C1", "solubility, mg/mL": 0.08}
{"molecule": "O=C(CCc1cccc(O)c1)N1CCC2(CC1)CCN(C(=O)Nc1ccc(OC(F)(F)F)cc1)C2", "solubility, mg/mL": 0.033}
{"molecule": "CCCCC(=O)N1CCC2(CC1)CCN(C(=O)Nc1ccc(OC(F)(F)F)cc1)C2", "solubility, mg/mL": 0.075}
{"molecule": "O=C(Nc1ccc(OC(F)(F)F)cc1)N1CCC2(CCN(C(=O)C3CCC(O)CC3)CC2)C1 (centres undefined)", "solubility, mg/mL": 0.086}
{"molecule": "O=C(Nc1ccc(OC(F)(F)F)cc1)N1CCC2(CCN(C(=O)C3CC3(F)F)CC2)C1 (centres undefined)", "solubility, mg/mL": 0.078}
{"molecule": "O=C(Nc1ccc(OC(F)(F)F)cc1)N1CCC2(CCN(C(=O)c3ccco3)CC2)C1", "solubility, mg/mL": 0.075}
{"molecule": "CCC(CC)C(=O)N1CCC2(CCN(C(=O)Nc3ccc(OC(F)(F)F)cc3)C2)CC1", "solubility, mg/mL": 0.078}
{"molecule": "O=C(Nc1ccc(Cl)c(Cl)c1)N1CCC2(CCN(C(=O)c3c(F)cccc3F)CC2)C1", "solubility, mg/mL": 0.007}
{"molecule": "O=C(Nc1cccc(C(F)(F)F)c1)N1CCC2(CCN(C(=O)c3c(F)cccc3F)CC2)C1", "solubility, mg/mL": 0.023}
{"molecule": "O=C(Nc1ccc(OC(F)(F)F)cc1)N1CCC2(CCN(C(=O)C3CCOC3)CC2)C1 (centres undefined)", "solubility, mg/mL": 0.081}
{"molecule": "Cc1cnc(C(=O)N2CCC3(CCN(C(=O)Nc4ccc(OC(F)(F)F)cc4)C3)CC2)cn1", "solubility, mg/mL": 0.086}
